Data origin, for the record: patent EP2914280B1

target: hSSTR2 (Homo sapiens, UniProt P30874); construct: host or cells: 'Cells expressing hSSTR2'; experiment: Intracellular calcium mobilization assay (FLIPR Calcium 4), hSSTR2; type: cell-based;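 note: agonist activity measured in cells expressing hSSTR2, seeded in 384-well plates, loaded with Calcium 4 dye, read-out as rise in intracellular calcium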
Sequence (P30874 whole entry): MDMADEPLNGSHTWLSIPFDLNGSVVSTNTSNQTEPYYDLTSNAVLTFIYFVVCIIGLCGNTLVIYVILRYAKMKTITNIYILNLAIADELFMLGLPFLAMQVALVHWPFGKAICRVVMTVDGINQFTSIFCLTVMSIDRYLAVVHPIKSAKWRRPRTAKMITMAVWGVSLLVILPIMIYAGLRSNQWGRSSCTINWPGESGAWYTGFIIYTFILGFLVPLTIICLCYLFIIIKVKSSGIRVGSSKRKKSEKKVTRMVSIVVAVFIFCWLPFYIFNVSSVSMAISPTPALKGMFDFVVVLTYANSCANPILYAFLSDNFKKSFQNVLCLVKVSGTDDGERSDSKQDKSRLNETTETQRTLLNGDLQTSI
Field: pEC50. Provide a value for each of the molecules that follow.
One number for each entry, as −log10 of the molar value.

A selection of reference data follows.
C[C@@H](O)[C@@H]1NC(=O)[C@H](CCCCN)NC(=O)[C@@H](Cc2c[nH]c3ccccc23)NC(=O)[C@H](Cc2ccccc2)NC(=O)[C@H](Cc2ccccc2)NC(=O)[C@H](CCCNC(=N)N)NC(=O)[C@H](NCCCS(=O)(=O)C[C@@H]2C[C@@H]3c4cccc5[nH]cc(c45)C[C@H]3N(C)C2)CCCCNC(=O)[C@H](Cc2ccc(F)cc2)NC1=O [Compound 48]
7.63
C[C@@H](O)[C@@H]1NC(=O)[C@H](CCCCN)NC(=O)[C@@H](Cc2c[nH]c3ccccc23)NC(=O)[C@H](Cc2ccccc2)NC(=O)[C@H](Cc2ccccc2)NC(=O)[C@H](CCCNC(=N)N)NC(=O)[C@H](NC[C@H](Cc2ccc(O)cc2)NC(=O)C[S+]([O-])C[C@@H]2C[C@@H]3c4cccc5[nH]cc(c45)C[C@H]3N(C)C2)CCCCNC(=O)[C@H](Cc2ccc(F)cc2)NC1=O (stereo partly drawn) [Compound 13]
8.80

# evaluate next
[ask] Missing value: pEC50, hSSTR2 (Homo sapiens, UniProt P30874), entry CC(=O)N(CCCNC[C@@H]1C[C@@H]2c3cccc4[nH]cc(c34)C[C@H]2N(C)C1)[C@@H]1CCCCNC(=O)[C@H](Cc2ccc(F)cc2)NC(=O)[C@H]([C@@H](C)O)NC(=O)[C@H](CCCCN)NC(=O)[C@@H](Cc2c[nH]c3ccccc23)NC(=O)[C@H](Cc2ccccc2)NC(=O)[C@H](Cc2ccccc2)NC(=O)[C@H](CCCNC(=N)N)NC1=O [Compound 22] . Fill in?
[reply] 7.56

----------
Field: Ki. Provide a value for each of the compounds that follow.
target: hSSTR4 (Homo sapiens, UniProt P31391); construct: expressed in transfected cells; host or cells: CHO-K1 (ATCC), pcDNA3.1, G418-selected clonal line; membranes; experiment: Somatostatin receptor radioligand binding assay (hSSTR4); settings: CHO-K1 cell membranes; 0.05 nM [125I-Tyr11]-SRIF-14; 60 minutes at 25°C; read-out: hSSTR4 Ki (nM) ± SEM
Sequence (P31391 whole entry): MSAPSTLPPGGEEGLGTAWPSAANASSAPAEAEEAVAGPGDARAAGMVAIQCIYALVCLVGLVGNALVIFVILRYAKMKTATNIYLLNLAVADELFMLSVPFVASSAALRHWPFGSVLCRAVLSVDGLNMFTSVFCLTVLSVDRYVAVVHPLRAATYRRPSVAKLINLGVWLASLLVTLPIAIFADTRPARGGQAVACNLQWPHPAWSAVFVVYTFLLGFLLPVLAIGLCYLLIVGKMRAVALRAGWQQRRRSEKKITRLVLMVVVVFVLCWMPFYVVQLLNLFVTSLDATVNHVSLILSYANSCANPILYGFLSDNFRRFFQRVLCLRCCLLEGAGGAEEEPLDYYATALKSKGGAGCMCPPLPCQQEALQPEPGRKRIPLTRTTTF
Answers are plain numbers, in nM.

# per-item lookup of Ki; items listed below
1. C[C@@H](O)[C@@H]1NC(=O)[C@H](CCCCN)NC(=O)[C@@H](Cc2c[nH]c3ccccc23)NC(=O)[C@H](Cc2ccccc2)NC(=O)[C@H](Cc2ccccc2)NC(=O)[C@H](CCCNC(=N)N)NC(=O)[C@H](NC[C@H](Cc2ccc(O)cc2)NC(=O)CSC[C@@H]2C[C@@H]3c4cccc5[nH]cc(c45)C[C@H]3N(C)C2)CCCCNC(=O)[C@H](Cc2ccc(F)cc2)NC1=O
2. C[C@@H](O)[C@@H]1NC(=O)[C@H](CCCCN)NC(=O)[C@@H](Cc2c[nH]c3ccccc23)NC(=O)[C@H](Cc2ccncc2)NC(=O)[C@H](Cc2ccccc2)NC(=O)[C@H](CCCNC(=N)N)NC(=O)[C@H](NC[C@H](CCCCNC(=O)CSC[C@@H]2C[C@@H]3c4cccc5[nH]cc(c45)C[C@H]3N(C)C2)NC(=O)CSC[C@@H]2C[C@@H]3c4cccc5[nH]cc(c45)C[C@H]3N(C)C2)CCCCNC(=O)[C@H](Cc2ccc(O)cc2)NC1=O
3. C[C@@H](O)[C@@H]1NC(=O)[C@H](CCCCN)NC(=O)[C@@H](Cc2c[nH]c3ccccc23)NC(=O)[C@H](Cc2ccncc2)NC(=O)[C@H](Cc2ccccc2)NC(=O)[C@H](CCCNC(=N)N)NC(=O)[C@H](NC[C@H](CCCCNC(=O)CSC[C@@H]2C[C@@H]3c4cccc5[nH]cc(c45)C[C@H]3N(C)C2)NC(=O)CSC[C@@H]2C[C@@H]3c4cccc5[nH]cc(c45)C[C@H]3N(C)C2)CCCCNC(=O)[C@H](Cc2ccccc2)NC1=O

[reply]
1: 25.2; 2: 60.7; 3: 24

# per-item lookup of Ki; items listed below
1. C[C@@H](O)[C@@H]1NC(=O)[C@H](CCCCN)NC(=O)[C@@H](Cc2c[nH]c3ccccc23)NC(=O)[C@H](Cc2ccncc2)NC(=O)[C@H](Cc2ccccc2)NC(=O)[C@H](CCCNC(=N)N)NC(=O)[C@H](NC[C@H](Cc2ccc(O)cc2)NC(=O)CSC[C@@H]2C[C@@H]3c4cccc5[nH]cc(c45)C[C@H]3N(C)C2)CCCCNC(=O)[C@H](Cc2ccccc2)NC1=O
2. CC(=O)N(CCC(=O)NC(CN[C@@H]1CCCCNC(=O)[C@H](Cc2ccc(F)cc2)NC(=O)[C@H]([C@@H](C)O)NC(=O)[C@H](CCCCN)NC(=O)[C@@H](Cc2c[nH]c3ccccc23)NC(=O)[C@H](Cc2ccccc2)NC(=O)[C@H](Cc2ccccc2)NC(=O)[C@H](CCCNC(=N)N)NC1=O)Cc1ccc(O)cc1)C[C@@H]1C[C@@H]2c3cccc4[nH]cc(c34)C[C@H]2N(C)C1 (single isomer, unassigned)

[reply]
1. 93.5
2. 7.3

----------
Field: log10(Ki). Provide a value for each of the compounds that follow.
target: hDRD2 (Homo sapiens); experiment: biochemical; format: binding; set-up: expressed in transfected cells; host or cells: CHO-K1, pcDNA3.1/GS, zeocin-selected clonal line; membranes
Sequence (P14416 whole entry): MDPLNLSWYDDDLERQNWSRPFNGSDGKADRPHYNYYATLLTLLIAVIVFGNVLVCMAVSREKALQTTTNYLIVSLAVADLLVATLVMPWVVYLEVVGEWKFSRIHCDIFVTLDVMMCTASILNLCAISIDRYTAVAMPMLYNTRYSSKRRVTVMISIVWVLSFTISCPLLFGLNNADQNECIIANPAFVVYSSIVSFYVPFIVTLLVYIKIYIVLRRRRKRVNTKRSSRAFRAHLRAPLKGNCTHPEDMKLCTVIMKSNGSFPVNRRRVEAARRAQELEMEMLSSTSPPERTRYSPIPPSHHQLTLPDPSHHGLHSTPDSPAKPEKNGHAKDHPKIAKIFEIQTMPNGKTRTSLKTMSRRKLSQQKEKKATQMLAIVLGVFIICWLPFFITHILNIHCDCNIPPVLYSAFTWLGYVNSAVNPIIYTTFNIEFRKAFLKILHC
Numbered stars: 1 amine (or outer) side, 2 acyl side, 3 side chain; on linkers, the order of the positions; unused ones are H or OH. Bridge positions count the residues as written; N and C are the ends. Square brackets hold non-standard residues; d marks the D form. Peptide text beside a SMILES is read from it. X1 = CN1C[C@H](CSCCN(CCSC[C@@H]2C[C@@H]3c4cccc5[nH]cc(c45)C[C@H]3N(C)C2)[C@H](CCCCN[*:2])C(=O)[*:1])C[C@@H]2c3cccc4[nH]cc(c34)C[C@H]21; Phe(4-F) = N[C@@H](Cc1ccc(F)cc1)C(=O)O; 4Pal = N[C@@H](Cc1ccncc1)C(=O)O
Note: values are log10 of Ki expressed in nM.

A selection of reference data follows.
C[C@@H](O)[C@@H]1NC(=O)[C@H](CCCCN)NC(=O)[C@@H](Cc2c[nH]c3ccccc23)NC(=O)[C@H](Cc2ccccc2)NC(=O)[C@H](Cc2ccccc2)NC(=O)[C@H](CCCNC(=N)N)NC(=O)[C@@H](NC[C@H](Cc2ccc(O)cc2)NC(=O)CSC[C@@H]2C[C@@H]3c4cccc5[nH]cc(c45)C[C@H]3N(C)C2)CCCCNC(=O)[C@H](Cc2ccccc2)NC1=O
1.59
C[C@@H](O)[C@@H]1NC(=O)[C@H](CCCCN)NC(=O)[C@@H](Cc2c[nH]c3ccccc23)NC(=O)[C@H](Cc2ccccc2)NC(=O)[C@H](Cc2ccccc2)NC(=O)[C@H](CCCNC(=N)N)NC(=O)[C@H](N(CCSC[C@@H]2C[C@@H]3c4cccc5[nH]cc(c45)C[C@H]3N(C)C2)CCSC[C@@H]2C[C@@H]3c4cccc5[nH]cc(c45)C[C@H]3N(C)C2)CCCCNC(=O)[C@H](Cc2ccc(F)cc2)NC1=O [Compound 39] (RFF[dW]KT[Phe(4-F)]; linker N-C via X1)
2.52
C[C@@H](O)[C@@H]1NC(=O)[C@H](CCCCN)NC(=O)[C@@H](Cc2c[nH]c3ccccc23)NC(=O)[C@H](Cc2ccncc2)NC(=O)[C@H](Cc2ccccc2)NC(=O)[C@H](CCCNC(=N)N)NC(=O)[C@H](N(CCSC[C@@H]2C[C@@H]3c4cccc5[nH]cc(c45)C[C@H]3N(C)C2)CCSC[C@@H]2C[C@@H]3c4cccc5[nH]cc(c45)C[C@H]3N(C)C2)CCCCNC(=O)[C@H](Cc2ccc(O)cc2)NC1=O [Compound 35] (RF[4Pal][dW]KTY; linker N-C via X1)
2.54

# per-item lookup of log10(Ki); items listed below
1. C[C@@H](O)[C@@H]1NC(=O)[C@H](CCCCN)NC(=O)[C@@H](Cc2c[nH]c3ccccc23)NC(=O)[C@H](Cc2ccccc2)NC(=O)[C@H](Cc2ccccc2)NC(=O)[C@H](CCCNC(=N)N)NC(=O)[C@H](NC[C@H](Cc2ccc(O)cc2)NC(=O)CSC[C@@H]2C[C@@H]3c4cccc5[nH]cc(c45)C[C@H]3N(C)C2)CCCCNC(=O)[C@H](Cc2ccc(O)cc2)NC1=O
2. C[C@@H](O)[C@@H]1NC(=O)[C@H](CCCCN)NC(=O)[C@@H](Cc2c[nH]c3ccccc23)NC(=O)[C@H](Cc2ccccc2)NC(=O)[C@H](Cc2ccccc2)NC(=O)[C@H](CCCNC(=N)N)NC(=O)[C@H](NCCSC[C@@H]2C[C@@H]3c4cccc5[nH]cc(c45)C[C@H]3N(C)C2)CCCCNC(=O)[C@H](Cc2ccccc2)NC1=O
3. C[C@@H](O)[C@@H]1NC(=O)[C@H](CCCCN)NC(=O)[C@@H](Cc2c[nH]c3ccccc23)NC(=O)[C@H](Cc2ccncc2)NC(=O)[C@H](Cc2ccccc2)NC(=O)[C@H](CCCNC(=N)N)NC(=O)[C@H](N(CCSC[C@@H]2C[C@@H]3c4cccc5[nH]cc(c45)C[C@H]3N(C)C2)CCSC[C@@H]2C[C@@H]3c4cccc5[nH]cc(c45)C[C@H]3N(C)C2)CCCCNC(=O)[C@H](Cc2ccccc2)NC1=O [Compound 29] (RF[4Pal][dW]KTF; linker N-C via X1)
4. CC(=O)N(CCCNC(CN[C@@H]1CCCCNC(=O)[C@H](Cc2ccc(F)cc2)NC(=O)[C@H]([C@@H](C)O)NC(=O)[C@H](CCCCN)NC(=O)[C@@H](Cc2c[nH]c3ccccc23)NC(=O)[C@H](Cc2ccccc2)NC(=O)[C@H](Cc2ccccc2)NC(=O)[C@H](CCCNC(=N)N)NC1=O)Cc1ccc(O)cc1)C[C@@H]1C[C@@H]2c3cccc4[nH]cc(c34)C[C@H]2N(C)C1 (single isomer, unassigned) [Compound 28A]
5. CC(=O)N(CCCNC[C@@H]1C[C@@H]2c3cccc4[nH]cc(c34)C[C@H]2N(C)C1)[C@@H]1CCCCNC(=O)[C@H](Cc2ccc(F)cc2)NC(=O)[C@H]([C@@H](C)O)NC(=O)[C@H](CCCCN)NC(=O)[C@@H](Cc2c[nH]c3ccccc23)NC(=O)[C@H](Cc2ccccc2)NC(=O)[C@H](Cc2ccccc2)NC(=O)[C@H](CCCNC(=N)N)NC1=O
6. C[C@@H](O)[C@@H]1NC(=O)[C@H](CCCCN)NC(=O)[C@@H](Cc2c[nH]c3ccccc23)NC(=O)[C@H](Cc2ccncc2)NC(=O)[C@H](Cc2ccccc2)NC(=O)[C@H](CCCNC(=N)N)NC(=O)[C@H](NC[C@H](CCCCNC(=O)C[S+]([O-])C[C@@H]2C[C@@H]3c4cccc5[nH]cc(c45)C[C@H]3N(C)C2)NC(=O)C[S+]([O-])C[C@@H]2C[C@@H]3c4cccc5[nH]cc(c45)C[C@H]3N(C)C2)CCCCNC(=O)[C@H](Cc2ccccc2)NC1=O (stereo partly shown)
7. C[C@@H](O)[C@@H]1NC(=O)[C@H](CCCCN)NC(=O)[C@@H](Cc2c[nH]c3ccccc23)NC(=O)[C@H](Cc2ccccc2)NC(=O)[C@H](Cc2ccccc2)NC(=O)[C@H](CCCNC(=N)N)NC(=O)[C@H](NCCSC[C@@H]2C[C@@H]3c4cccc5[nH]cc(c45)C[C@H]3N(C)C2)CCCCNC(=O)[C@H](Cc2ccc(F)c(F)c2)NC1=O

[reply]
1.18
2.49
2.13
1.15
2.30
1.83
1.23
